Assay: NCI Yeast Anticancer Drug Screen. Data for the sgs1 mgt1 strain (AID 161);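 also: 0% = growth of cultures given vehicle only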
Conditions: S. cerevisiae sgs1 mgt1 strain, at 50.0 µM, hits give high values
This is part of a sample that, as a whole, favours compounds with a hit. Of some 79,000 tested, about 15% had one in any assay.
Please go through the items and note down their growth inhibition.
Answers are plain numbers, in %.

Check out these entries, answers already filled in.
# compound, unitsLabel, growth inhibition
rows = [
    ("CCOC(=O)c1c(C)cc2ccccn12", "%", 0.05),
    ("CCCCCN(CCCCC)CC(O)c1ccc2cc3c(nc2c1)CCCC3 (stereo not drawn)", "%", 26.9),
]

[Q] What does the record list as growth inhibition for CC(C)SCC(N)C(=O)O (stereo not drawn) ?
[A] -2.65

---

Experiment: NCI Yeast Anticancer Drug Screen. Data for the cln2 rad14 strain (AID 165);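 also: 0% = growth equal to vehicle treated cultures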
Details: S. cerevisiae cln2 rad14 strain, at 50.0 µM, hits give high values
The panel holds about 79,000 compounds, 15% with a hit somewhere; the sample as a whole holds those more often.
experimentalReadout: growth inhibition (%)
One number for each entry, in %.

# compound, unitsLabel, obsValue
data = [
    ("Cc1nc(/C=C2\\C(=O)C=Cc3ccccc32)c(O)o1", "%", -63),
    ("COc1cc([N+](=O)[O-])cc(C(C)=O)c1O", "%", 2.45),
    ("O=C(Nc1ccccc1[N+](=O)[O-])OCCOc1ccccc1", "%", -7.2),
    ("O=C1c2ccccc2S(=O)N1OCc1ccccc1 (centres undefined)", "%", -16.6),
]

Answer for every listed entry: what is its growth inhibition? The entries follow.
1. COc1cccc2c1OC(=O)C(S(=O)(=O)c1ccccc1)C2 (centres undefined)
2. CCN(CC)CCNc1ccc2ncn3c4c(OC)ccc(OC)c4c(=O)c1c23

[A]
1. -37.5
2. 22.6

// batch mode: one growth inhibition value per listed entry
1. Cc1n[n+](CC(=O)c2ccccc2)c2sc(N)nn12
2. COc1ccc(C2=Nn3c(nc4sc(C)c(C)c4c3=O)SC2)cc1
3. CCOC(=O)C(C)C(=O)C(C)C (centres undefined)
4. CN=C1C=C(/N=C2/C=C(N/C(=C\C#N)C(C)(C)O)OC2(C)C)OC1(C)C
5. Cc1[nH]c(=O)[nH]c(=O)c1-n1nnc2ccccc2c1=O

[A]
[-50, 19.1, -11.8, 7.1, -7.05]

---

Give measured growth inhibition for each item. Keep answers brief.
Assay: NCI Yeast Anticancer Drug Screen. Data for the bub3 strain (AID 167)
Details: S. cerevisiae bub3 mutant strain, at 50.0 µM, hits give high values
About 79,000 compounds went through this panel and 15% of them were active in at least one assay; those are over-represented in the sample as a whole.
Answers are plain numbers, in %.

# molecule, growth inhibition (%)
records = [
    ("COC(=O)c1ccccc1OC(=S)N(C)C", 0.75),
    ("CN(C)C=Nc1cc2c(cc1Br)-c1ccccc1C2=O", 2),
]

Each of the following entries comes with a recorded value; kindly state growth inhibition for each.
1. O=C(/C=C/c1ccccc1)Sc1ccccc1
2. N#CC1=C(N)N(c2ccccc2)C(c2ccccc2)C1(C#N)C#N (centres undefined)

[A]
1: -8.1; 2: -22.9

---

Assay: NCI Yeast Anticancer Drug Screen. Data for the rad50 strain (AID 155);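 also: 0% = growth of vehicle-only cultures of the same strain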
Settings: S. cerevisiae rad50 strain growth inhibition; at 50.0 µM; hits give high values
This is part of a sample that, as a whole, favours compounds with a hit. Of some 79,000 tested, about 15% had one in any assay.
experimentalReadout: growth inhibition (%)
Numbers only, in %.

# compound, unitsLabel, growth inhibition
records = [
    ("CCCCn1cnc2c(=S)nc[nH]c21", "%", -2.7),
    ("CCOC(=O)NC1CCc2ccccc2C1 (stereo not drawn)", "%", 5.95),
    ("CCCCCCCC/C=C\\CCCCCCCC(=O)O", "%", 10.1),
    ("O=C(O)C(O)(C1CCCCC1)C1CCC2CCC3CCCC1C32 (stereo not drawn)", "%", 5.4),
]

Hi there! I need growth inhibition for each item below, if you can.
1. Clc1ccc(-c2nc3ccccc3cc2N2CCOCC2)cc1
2. Oc1ccc(N=Cc2ccc(C=Nc3ccc(O)cc3)cc2)cc1
3. CCCCCCCCC(=O)Nc1nc2nc[nH]c2c(=O)[nH]1
4. COC(=O)c1cc(-c2ccc(OC)cc2)[nH]c(=O)c1C#N

[A]
[70.5, -22.9, -9.65, 20.2]

---

Test: NCI Yeast Anticancer Drug Screen. Data for the bub3 strain (AID 167)
Details: S. cerevisiae bub3 mutant strain, at 50.0 µM, hits give high values
About 79,000 compounds went through this panel and 15% of them were active in at least one assay; those are over-represented in the sample as a whole.
experimentalReadout: growth inhibition (%)
Numbers only, in %.

Look over these answered cases.
# molecule, growth inhibition / %
measured = [
    ("Cc1nc2ccccc2nc1C1=C(O)c2ccccc2CC1=O", -10.2),
    ("O=C(O)CCS.[Cu+2]", -29.9),
    ("C=C(C)CN(C#N)CC(=C)C", -3.95),
]

Batch request: growth inhibition for each of the following molecules.
1. CCCCCCCCCCCC(=O)O
2. COc1ccc(/C(Cl)=C(\CNc2ccccn2)c2ccccc2)cc1OC
3. COc1cccc2c(Nc3ccc(S(=O)(=O)Nc4ncccn4)cc3)c3ccc([N+](=O)[O-])cc3nc12
4. CCCc1c(O)c(=O)c2c(OC)cc(OC)c3c4c(OC)cc(OC)c5c(=O)c(O)c(CCC)c(c1c23)c54
5. Cc1ccc2c(c1)C(C(C)C)CCC2(C)C (stereo unspecified)
6. Cc1c(C(=O)CC(=O)C(=O)Nc2ccc(Cl)cc2)[n+](=O)c2ccccc2n1[O-]

[A]
1: 10.1; 2: 2.3; 3: 32.2; 4: 75.8; 5: -0.6; 6: 8.35

Give one value of growth inhibition per listed molecule.
1. Cc1ccc(C)c(C2NC(=O)c3ccccc3N2)c1 (stereo unspecified)
2. O=C(/C=C/c1ccccc1)/C=N/N1C(=S)N(c2ccccc2)C(=Nc2ccccc2)C1=Nc1ccccc1
3. CC1=C(C(=O)Nc2ccccc2C)C(c2ccccc2)C(C(=O)Nc2ccccc2C)=C(C)N1
4. C[N+](C)(CCCN1C(=O)c2cccc3c(Br)ccc(c23)C1=O)Cc1ccc(Cl)c(Cl)c1
5. CO/C(Cc1cc(O)cc(O)c1)=N\N
6. CC(=O)NC1C(OCC(=O)NC(C)C(=O)NC(CCC(=O)NCCCCCNc2ccc([N+](=O)[O-])c3[nH]c4ccccc4c(=O)c23)C(N)=O)C(O)C(CO)OC1(C)OCc1ccccc1 (stereo unspecified)

[A]
-52.2
-20.1
16.3
95.7
7.85
-12.1

[Q] // returns reported growth inhibition for input Cn1ccc2c([N+](=O)[O-])cccc2c1=O
[A] -25.4

---

Experiment: NCI Yeast Anticancer Drug Screen. Data for the mec2-1 strain (AID 157)
Details: S. cerevisiae mec2-1 strain, at 50.0 µM, hits give high values
This is part of a sample that, as a whole, favours compounds with a hit. Of some 79,000 tested, about 15% had one in any assay.
I'd appreciate it if you could supply growth inhibition values for the items below.
Answers are plain numbers, in %.

Guide cases for growth inhibition, answers given:
# molecule, experimentalReadout, unitsLabel, obsValue
data = [
    ("CC1CCC(=O)NCCCCC(=O)N1 (stereo not given)", "growth inhibition", "%", 1.85),
    ("CCOC(=O)C1=C(C(C)=O)C(c2ccc(OC)c(OC)c2)C(C(C)=O)=C(C(=O)OCC)N1", "growth inhibition", "%", 12.9),
    ("CCSC(SCC)C(SCC)C(OC(=O)c1ccccc1)C(OC(=O)c1ccccc1)C(COC(=O)c1ccccc1)OC(=O)c1ccccc1 (stereo not given)", "growth inhibition", "%", -2.35),
    ("CCCC(=O)SCC[N+](C)(C)C", "growth inhibition", "%", -48.3),
    ("N#CC1CC=CCC1 (stereo not given)", "growth inhibition", "%", 4.95),
]

# per-item lookup of growth inhibition; items listed below
1. CCOC(=O)/C(=C\c1ccnc2ccccc12)P(=O)(OCC)OCC
2. CSc1nc(SC)c(Nc2cccc(C)c2)c(SC)n1
3. COc1ccc2nc3cc(Cl)ccc3c(NCCC3CCCN4CCCCC34)c2c1 (stereo not given)
4. Cc1cc(N)c2cc(N)ccc2n1

[A]
[4, 7.7, 26.4, 99.5]

---

Assay: NCI Yeast Anticancer Drug Screen. Data for the rad50 strain (AID 155);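 also: 0% = growth of vehicle-only cultures of the same strain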
Conditions: S. cerevisiae rad50 strain growth inhibition; at 50.0 µM; hits give high values
Compounds without any hit were thinned out: in the full panel of roughly 79,000, 15% have a hit.
Give growth inhibition for every item shown.
Numbers only, in %.

Some solved entries appear below for comparison.
# molecule, obsValue
measured = [
    ("Cn1cc(S(C)=O)c(=O)c2ccccc21 (stereo not drawn)", 2.65),
    ("C=C1C(=C)C2C=CC1C1C3C(c4ccccn4)=NN=C(c4ccccn4)C3C21 (stereo not drawn)", 54.4),
]

Now, please, on to the next molecule.
[Q] For the molecule O=C(C/C(=N\NC(=O)C[n+]1ccccc1)C(=O)Nc1nc2ccc([N+](=O)[O-])cc2s1)CC(c1ccccc1)c1c(O)c2ccccc2oc1=O (stereo not drawn) , what growth inhibition is on record?
[A] 3.65
